B1: PhoQ; a variant is named by its letters at X, in order, P23837 (parent)
chain: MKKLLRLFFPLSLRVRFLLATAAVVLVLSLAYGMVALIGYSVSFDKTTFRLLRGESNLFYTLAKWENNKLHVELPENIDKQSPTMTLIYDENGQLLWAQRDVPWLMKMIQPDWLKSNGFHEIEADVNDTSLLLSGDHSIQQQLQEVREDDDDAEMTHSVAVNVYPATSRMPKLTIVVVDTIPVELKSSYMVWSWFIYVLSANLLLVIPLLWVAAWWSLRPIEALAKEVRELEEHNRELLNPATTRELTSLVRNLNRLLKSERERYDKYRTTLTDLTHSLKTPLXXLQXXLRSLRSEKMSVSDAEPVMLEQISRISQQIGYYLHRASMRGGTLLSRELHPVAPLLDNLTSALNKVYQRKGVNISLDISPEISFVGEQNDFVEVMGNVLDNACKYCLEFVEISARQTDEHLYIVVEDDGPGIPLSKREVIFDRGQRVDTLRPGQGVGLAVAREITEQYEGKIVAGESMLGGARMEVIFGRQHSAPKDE

Variants of: B1
Experiment: enrichment ratio after two sorts for PhoP signalling (ratio (wild type AVST 3.29)); higher = more functional
Settings: with PhoP (E. coli)
Over roughly 140,000 sequences, “enrichment ratio after two sorts for PhoP signalling” has its median near 0; the highest 2% begin near 11. For the sample, the highest values were picked, then their nearest neighbours and some sequences at random.
readout_kind: enrichment ratio

Query (variant): YTLQ ; field requested: enrichment ratio 12.8

What value of enrichment ratio has been recorded for this entry: LICH ≤ 0.25

Sample PGWI — what was its enrichment ratio? ≤ 0.25

Query: enrichment ratio; subject: HNSH ≤ 0.25

Need enrichment ratio of EEFA , thanks. ≤ 0.25

Look at this variant and give its reported enrichment ratio. VFLQ ≤ 0.25

Which enrichment ratio is reported for this variant? QPLQ ≤ 0.25

State the recorded enrichment ratio for this entry: HNKA ≤ 0.25

Bench note: what enrichment ratio did VTLQ show? 11.3

For the variant GTLQ , what enrichment ratio is on record? 15.2

Sample IGIE — what was its enrichment ratio? ≤ 0.25
